Recorded Ki by entry
Target: LRRK2 (Homo sapiens, UniProt Q5S007, G2019S)
Construct: purchased Invitrogen PV4882 (lot 567054A)
Sequence (Q5S007 whole entry G2019S): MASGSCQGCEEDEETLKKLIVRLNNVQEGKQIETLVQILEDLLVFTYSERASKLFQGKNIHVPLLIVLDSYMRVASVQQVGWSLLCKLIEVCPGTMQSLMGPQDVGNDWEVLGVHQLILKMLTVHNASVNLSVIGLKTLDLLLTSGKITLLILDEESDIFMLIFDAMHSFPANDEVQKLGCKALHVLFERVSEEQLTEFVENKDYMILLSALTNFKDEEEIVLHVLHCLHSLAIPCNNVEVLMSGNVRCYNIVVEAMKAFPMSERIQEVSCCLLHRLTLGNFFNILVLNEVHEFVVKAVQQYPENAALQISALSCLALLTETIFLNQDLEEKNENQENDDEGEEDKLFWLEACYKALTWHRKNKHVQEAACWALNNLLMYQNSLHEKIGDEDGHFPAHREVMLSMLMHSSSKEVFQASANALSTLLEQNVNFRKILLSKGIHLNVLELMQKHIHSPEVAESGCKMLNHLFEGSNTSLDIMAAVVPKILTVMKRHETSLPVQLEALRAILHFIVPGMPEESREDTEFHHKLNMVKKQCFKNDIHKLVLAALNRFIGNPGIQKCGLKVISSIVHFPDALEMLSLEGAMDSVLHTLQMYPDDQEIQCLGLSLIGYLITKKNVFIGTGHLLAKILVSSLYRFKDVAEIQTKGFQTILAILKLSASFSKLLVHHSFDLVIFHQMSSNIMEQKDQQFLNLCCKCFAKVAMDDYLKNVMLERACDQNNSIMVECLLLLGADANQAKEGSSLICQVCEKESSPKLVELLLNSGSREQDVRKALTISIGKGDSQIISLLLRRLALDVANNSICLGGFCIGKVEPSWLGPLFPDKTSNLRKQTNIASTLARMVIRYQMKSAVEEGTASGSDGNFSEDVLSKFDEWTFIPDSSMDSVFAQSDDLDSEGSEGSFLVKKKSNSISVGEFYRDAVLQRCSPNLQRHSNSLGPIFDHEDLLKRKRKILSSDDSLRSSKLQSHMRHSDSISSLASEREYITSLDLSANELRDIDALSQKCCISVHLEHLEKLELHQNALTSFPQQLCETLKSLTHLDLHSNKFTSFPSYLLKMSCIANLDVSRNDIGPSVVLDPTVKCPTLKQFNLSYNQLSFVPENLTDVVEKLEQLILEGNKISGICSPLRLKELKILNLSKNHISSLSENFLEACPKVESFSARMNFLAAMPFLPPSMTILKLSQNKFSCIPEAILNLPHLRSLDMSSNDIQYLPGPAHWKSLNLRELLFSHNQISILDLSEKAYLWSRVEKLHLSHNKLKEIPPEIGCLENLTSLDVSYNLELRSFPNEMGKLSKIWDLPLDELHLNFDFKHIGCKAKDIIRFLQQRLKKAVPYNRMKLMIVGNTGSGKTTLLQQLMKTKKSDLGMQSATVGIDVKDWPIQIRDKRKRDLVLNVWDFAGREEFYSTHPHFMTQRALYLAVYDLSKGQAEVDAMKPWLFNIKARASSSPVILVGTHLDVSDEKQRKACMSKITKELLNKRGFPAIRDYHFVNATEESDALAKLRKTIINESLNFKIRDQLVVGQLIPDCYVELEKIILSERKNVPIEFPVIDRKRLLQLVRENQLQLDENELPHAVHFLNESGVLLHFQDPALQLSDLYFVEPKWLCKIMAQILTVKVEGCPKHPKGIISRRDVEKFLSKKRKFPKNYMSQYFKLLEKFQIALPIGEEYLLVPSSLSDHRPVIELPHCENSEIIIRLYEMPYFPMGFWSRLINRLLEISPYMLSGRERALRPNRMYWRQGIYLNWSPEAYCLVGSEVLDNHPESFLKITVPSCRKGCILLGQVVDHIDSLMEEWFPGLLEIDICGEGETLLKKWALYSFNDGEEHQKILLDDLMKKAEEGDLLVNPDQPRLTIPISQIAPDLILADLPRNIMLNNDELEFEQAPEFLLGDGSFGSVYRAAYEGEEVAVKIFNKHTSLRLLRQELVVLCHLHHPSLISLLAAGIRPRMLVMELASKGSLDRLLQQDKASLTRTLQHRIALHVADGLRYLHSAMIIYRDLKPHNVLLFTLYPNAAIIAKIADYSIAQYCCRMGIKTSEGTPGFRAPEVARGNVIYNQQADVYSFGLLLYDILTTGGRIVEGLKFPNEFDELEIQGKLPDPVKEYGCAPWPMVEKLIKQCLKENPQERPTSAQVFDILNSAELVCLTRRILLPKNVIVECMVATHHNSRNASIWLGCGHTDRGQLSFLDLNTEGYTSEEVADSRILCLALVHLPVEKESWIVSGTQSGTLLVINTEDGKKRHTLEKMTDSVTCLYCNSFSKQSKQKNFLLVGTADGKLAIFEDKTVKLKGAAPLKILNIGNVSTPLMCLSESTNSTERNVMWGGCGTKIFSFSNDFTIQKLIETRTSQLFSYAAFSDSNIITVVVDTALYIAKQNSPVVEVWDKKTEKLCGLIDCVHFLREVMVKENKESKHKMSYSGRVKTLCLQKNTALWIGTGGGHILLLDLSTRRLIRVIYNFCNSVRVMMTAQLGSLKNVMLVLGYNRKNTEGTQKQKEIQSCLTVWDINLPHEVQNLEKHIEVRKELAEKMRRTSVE
Test: In Vitro LRRK2 Assay (LabChip 3000, fluorescently-labeled peptide substrate, ATP)
Assay type: biochemical
Settings: read-out: LRRK2 Ki (KI), Table 7
Use nM as the unit, but write only the number.

Solved entries:
Lab note: measured Ki of `COCCn1ncc(Nc2ncc(Cl)c(OC)n2)c1C` was 19

Lab note: measured Ki of `CCNc1nc(Nc2cn(C3CCN(CC4OCCO4)CC3)nc2C)ncc1C(F)(F)F` was 9.4

Lab note: measured Ki of `COc1nc(Nc2cn(S(=O)(=O)C3CC3)nc2C)ncc1Cl` was 20

Continue with the compound presented below.
Lab note: measured Ki of `COCCn1cc(Nc2ncc(Cl)c(OC)n2)c(C)n1` was 15
